Below, each entry is listed alongside its reported pKd.
# tested.on: T1, histidine-tagged human uPAR (Sino#10925-H08H) (human, UniProt Q03405 23-303)
# T1 construct: also called uPAR-His
# method.summary: BLI (Octet), antibody on anti-human Fc sensor, uPAR from 50 nM;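 also: antibodies captured at 10 µg/mL on anti-human Fc biosensors, with uPAR as analyte in a twofold dilution series from 50 nM downward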
pKd: −log10 of the molar value.

| binder | pKd |
| --- | --- |
| M8-H3/L2B2 (antibody, V domains shown, also called humanized M8) VH: QIQLVQSGSELKKPGASVKISCKASGTTFTDYGMNWVKQSPGKGLKWMGWINTNTGEPTYAEDFKGRFVFSLDTSVSTAYLQISSLKAEDTATYFCAHYSFDYWGQGTLLTVSS VL: DIQMTQSPSSLSASVGDTVTITCRTSENIYSNLAWYQQKPGKSPQLLVYAATNLADGVPSRFSGSGSGTQYTLKISSLQPEDFATYYCQHFWGTPWTFGGGTKVEIKT | 8.76 |
| M43-Chimeric (antibody, V domains shown) VH: QVQLQQSGAELARPGASVNLSCKASGYTFTSYGISWVKQRTGQGLEWIGEIYPRSGNTYYNEKFKGKATLTADKSSRTAYMELRSLTSEDSAVYFCAGKDYGSTYADYWGQGTTLTVSS VL: QIVLTQSPAIMSASPGEKVTMTCSASSSVSSRYLHWYQQKSGASPKLWIYGTSNLASGVPARFSGSGSGTSYSLTINSVEAEDAATYYCQQYHSDPLTFGAGTKLELK | 7.82 |
| M43-H1bm5/L4 (antibody, V domains shown, also called humanized M43) VH: QVQLVQSGAEVAKPGASVNLNCKASGYTFTSYGISWVRQRTGQGLEWIGEIYPRSGNTYYNEKFKGKVTLTTDKSTRTAYMELRSLTSEDTAVYYCAGKDYGSTYADYWGQGTTLTVSS VL: QIVLTQSPATLSASPGERVTMTCSASSSVSSRYLHWYQQKSGASPRLWIYGTSNLASGVPARFSGSGPGTSYTLTISSVEPEDAATYYCQQYHSDPLTFGQGTKLELKT | 7.80 |
| M43-H4bm5/L4 (antibody, V domains shown, also called humanized M43) VH: QVQLQQSGAEVAKPGASVNLNCKASGYTFTSYGISWVRQRTGQGLEWIGEIYPRSGNTYYNEKFKGKATLTADKSTRTAYMELRSLTSEDTAVYFCAGKDYGSTYADYWGQGTTLTVSS VL: QIVLTQSPATLSASPGERVTMTCSASSSVSSRYLHWYQQKSGASPRLWIYGTSNLASGVPARFSGSGPGTSYTLTISSVEPEDAATYYCQQYHSDPLTFGQGTKLELKT | 7.83 |
| M1-Chimeric (antibody, V domains shown) VH: EVQLQQSGAELVRPGASVKLSCTASGFNIKDEYINWVKQRPEQGLEWIGWIDPENGDTEYASKFQGKATITADTSSNTAYLQLSSLTSEDTAVYYCTGGNYVGWFPYWGQGTLVTVSA VL: QIVLTQSPAIMSASPGEKVTMTCSASSSVSYMHWYQQKSGTSPKRWLYDTSKLASGVPARFSGSGSGTSYSLTISSMEAEDAATYYCQQWSSNPPYTFGGGTKLEIK | 8.95 |
